src = PubChem BioAssay

- testMethodNotes: viability loss in pontine glioma line – cell-based, SU-DIPG-XXV, MIPE5.0, CellTiter-Glo, qHTS, dose response (AID 1347065);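 also: cells exposed to compound for 48 hours before ATP readout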
- experimentalSetup: CellTiter-Glo ATP luminescence
Inconclusive results are not listed. The source made the active and inactive calls. The limit is not given here; nearly all actives have AC50 up to about 26 µM.
// one of active, inactive, no free text

As a guide, the following entries are already answered.
COCCOc1ccc2c(c1)ncn2-c1ccc2cccc(N3CCC(N)CC3)c2n1 = active
C=CC(=O)Nc1ccc2ncnc(Nc3cccc(Br)c3)c2c1 = active
CNC(=O)c1cc(Oc2ccc(NC(=O)Nc3cc(C(C)(C)C)nn3-c3ccc4ncccc4c3)c(F)c2)ccn1 = active
COc1nccc(-c2c(-c3ccc(F)cc3)ncn2C2CCNCC2)n1 = inactive
CO[C@H]1/C=C\C=C(\C)C(=O)NC2=CC(=O)C(NCCN(C)C)=C(C[C@@H](C)C[C@H](OC)[C@H](O)[C@@H](C)/C=C(/C)[C@@H]1OC(N)=O)C2=O = active

Query :: Please let me know the test result on file for CO[C@H]1C[C@@H]2CC[C@@H](C)[C@@](O)(O2)C(=O)C(=O)N2CCCC[C@H]2C(=O)O[C@H]([C@H](C)C[C@@H]2CC[C@@H](OC(=O)C(C)(CO)CO)[C@H](OC)C2)CC(=O)[C@H](C)/C=C(\C)[C@@H](O)[C@@H](OC)C(=O)[C@H](C)C[C@H](C)/C=C/C=C/C=C/1C .
Result :: active

Query :: Answer briefly: the call reported for O=C(Nc1ccc(OC(F)(F)F)cc1)c1sccc1NCc1ccnc2ccccc12 in this assay.
Result :: active

----------
- testMethodNotes: growth inhibition, single agent or in combination, cell-based, chromothripsis tumors, cisplatin or BGB combos (AID 1671449);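 also: cells exposed for 96 hours; 0% = vehicle DMSO and 100% = killing by high DMSO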
- experimentalSetup: LFS_MB_P medulloblastoma cells, measured here: combination with cisplatin, at 5 µM, stronger effect = higher value
parameter: inhibition
Lab note: write values as number then unit, every time.

CC(=O)[C@]1(N)Cc2c(O)c3c(c(O)c2[C@@H](O[C@H]2C[C@H](O)[C@H](O)CO2)C1)C(=O)c1ccccc1C3=O = 104%
CCCCc1nc2cc(/C=C/C(=O)NO)ccc2n1CCN(CC)CC = 104%
CN(C)Cc1c(C(=O)NCCOc2ccc(C(=O)NO)cc2)oc2ccccc12 = 110%
CS(=O)(=O)c1ccc(-c2nnc(/C=C/c3nnc(-c4ccc(C#N)cc4)o3)n2-c2ccccc2Cl)nc1 = -36.6%

Consider the record given below.
Query :: If you can, please state the reported inhibition value of NC(=O)c1nc(F)c[nH]c1=O .
Result :: -15%

----------
- testMethodNotes: viability loss with induced miR-34 in A549 – imaging, A549 dox-inducible miR-34, nuclei and caspase counts, primary screen (AID 1347080)
- experimentalSetup: A549 miR-34 inducible, Hoechst nuclei count, 48 h; stronger effect = lower value; cell number ratio, induced over uninduced
parameter: fold change
// no unit, no text: just the number

c1ccc(N2CCN(CCCOc3ccc4c(c3)OCO4)CC2)cc1 = 0.912
c1ccc(N2CCN(Cc3nc4ccccc4[nH]3)CC2)nc1 = 0.909
CC(C)[C@H](O)CC[C@@H](C)[C@H]1CC[C@H]2[C@@H]3CC=C4C[C@@H](O)CC[C@]4(C)[C@H]3CC[C@]12C = 0.898
NC(=O)c1ccc(N(C(N)=O)c2c(F)cccc2F)nc1-c1ccc(F)cc1F = 0.9
CCCCC/C=C/C/C=C/CCCCCCCC(=O)O = 1.12
COc1ccc(/C=C/c2ccccc2F)cc1 = 0.866
Cc1ccc(NC(=O)C2(c3ccc4c(c3)OC(F)(F)O4)CC2)nc1-c1cccc(C(=O)O)c1 = 0.92
CN(C)Cc1cccc(N=C(c2ccccc2)c2c(O)[nH]c3cc(C(=O)N(C)C)ccc23)c1 = 0.785

Query :: Look up fold change: Cc1cc(C(=O)O)sc1C(N)C(=O)O (stereo unspecified)
Result :: 0.995

Query :: Consider the compound Cc1nc2c(c(=O)[nH]1)CSCC2 and give its measured fold change.
Result :: 0.983

Query :: Field request: fold change | item: O=[N+]([O-])c1ccccc1S(=O)(=O)NCC1CCC(CNCC2CCc3ccccc3C2)CC1 (stereo unspecified)
Result :: 0.747
